TEST_NAME: in vivo
TEST_PARAMETERS: Sprague-Dawley, rat, po, 10 mg/kg
RECORDED_ENDPOINT: Tmax (min)

# CHEMICAL_STRUCTURE, READOUT_UNITS, OBSERVED_VALUE
rows = [
    ("CN(c1ncnc2[nH]ccc12)[C@@H]1CCN(C(=O)CC#N)C1", "min", 18),
]

###

TEST_NAME: in vivo
TEST_PARAMETERS: Sprague-Dawley, rat, po, 10 mg/kg
Description: Half life in Sprague-Dawley rat at 10 mg/kg, po by LC-MS/MS analysis

# CHEMICAL_STRUCTURE, half-life / h
records = [
    ("CN(c1ncnc2[nH]ccc12)[C@@H]1CCN(C(=O)CC#N)C1", 2.1),
]

###

TEST_NAME: in vitro
TEST_PARAMETERS: human, microsomes
Description: Metabolic stability in human liver microsomes assessed as parent compound remaining after 30 mins
RECORDED_ENDPOINT: remaining at 0.5 h (%)

# CHEMICAL_STRUCTURE, RECORDED_ENDPOINT, READOUT_UNITS, OBSERVED_VALUE
data = [
    ("CN(c1ncnc2[nH]ccc12)[C@@H]1CCN(S(=O)(=O)c2cccc([N+](=O)[O-])c2)C1", "remaining at 0.5 h", "%", 13.4),
    ("CN(c1ncnc2[nH]ccc12)[C@@H]1CCN(S(=O)(=O)c2cccc(C#N)c2)C1", "remaining at 0.5 h", "%", 26.3),
    ("CN(c1ncnc2[nH]ccc12)[C@@H]1CCN(C(=O)CC#N)C1", "remaining at 0.5 h", "%", 97.6),
    ("CN(c1ncnc2[nH]ccc12)[C@@H]1CCN(S(=O)(=O)c2ccc(C(F)(F)F)cc2)C1", "remaining at 0.5 h", "%", 21),
]

###

TEST_NAME: in vivo
TEST_PARAMETERS: Sprague-Dawley, rat, po, 10 mg/kg
RECORDED_ENDPOINT: AUC(0-inf) (ng·h/mL)

# CHEMICAL_STRUCTURE, RECORDED_ENDPOINT, OBSERVED_VALUE
rows = [
    ("CN(c1ncnc2[nH]ccc12)[C@@H]1CCN(C(=O)CC#N)C1", "AUC(0-inf)", 4300),
]

###

TEST_NAME: in vivo
TEST_PARAMETERS: beagle, dog, po, 5 mg/kg
Description: AUC (0 to t) in Beagle dog at 5 mg/kg, po by LC-MS/MS analysis
RECORDED_ENDPOINT: AUC(0-t) (ng·h/mL)

# CHEMICAL_STRUCTURE, RECORDED_ENDPOINT, READOUT_UNITS, OBSERVED_VALUE
measured = [
    ("CN(c1ncnc2[nH]ccc12)[C@@H]1CCN(C(=O)CC#N)C1", "AUC(0-t)", "ng·h/mL", 6400),
]

###

pIC50: −log10 of the molar value.
The following are reported pIC50 results, target or system Tyrosine-protein kinase JAK1 (Homo sapiens, UniProt P23458).
RECORDED_ENDPOINT: pIC50

# CHEMICAL_STRUCTURE, OBSERVED_VALUE
measured = [
    ("CC(C)S(=O)(=O)N1CC[C@@H](N(C)c2ncnc3[nH]ccc23)C1", 6.77),
    ("Cc1ccc(S(=O)(=O)N2CC[C@@H](N(C)c3ncnc4[nH]ccc34)C2)cc1", 7.72),
    ("N#Cc1cccc(S(=O)(=O)N2CC[C@@H](N(CC3CC3)c3ncnc4[nH]ccc34)C2)c1", 7.77),
    ("CN(c1ncnc2[nH]ccc12)[C@@H]1CCN(S(=O)(=O)C(F)(F)F)C1", 6.85),
    ("CN(c1ncnc2[nH]ccc12)[C@H]1CN(C(=O)CC#N)CC12CCC2", 7.80),
    ("CN(c1ncnc2[nH]ccc12)[C@@H]1CCN(S(=O)(=O)N2CCCCC2)C1", 7.18),
]
